experimental system: Anthrax toxin receptor 2 (Homo sapiens, UniProt P58335, C178A/R40C)
Sequence (P58335 whole entry, looked up, stated change not applied): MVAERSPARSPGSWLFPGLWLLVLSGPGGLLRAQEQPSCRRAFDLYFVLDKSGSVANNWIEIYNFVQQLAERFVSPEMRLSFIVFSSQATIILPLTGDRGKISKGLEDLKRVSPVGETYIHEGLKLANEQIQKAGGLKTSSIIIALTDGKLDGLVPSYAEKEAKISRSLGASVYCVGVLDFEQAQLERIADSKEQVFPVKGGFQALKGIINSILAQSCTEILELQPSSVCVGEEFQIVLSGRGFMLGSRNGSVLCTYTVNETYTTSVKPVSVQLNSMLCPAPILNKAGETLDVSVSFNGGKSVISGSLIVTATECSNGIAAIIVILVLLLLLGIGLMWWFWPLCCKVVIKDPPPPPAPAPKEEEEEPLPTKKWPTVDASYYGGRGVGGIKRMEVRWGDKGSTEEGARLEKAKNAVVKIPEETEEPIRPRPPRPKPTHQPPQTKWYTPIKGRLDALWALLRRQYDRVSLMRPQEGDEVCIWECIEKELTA
protocol text: Inhibition of AF488-labelled PA binding to AF546- labelled GST-tagged CMG2 R40C/C178A double mutant (unknown origin) expressed in Escherichia coli BL21 DE3 measured after 4 hrs by FRET assay
pIC50: −log10 of the molar value.
Would you mind telling me the reported pIC50 of each entry?

For orientation, consider the following solved cases.
# compound, value measured
data = [
    ("O=C(OC[C@H]1O[C@H](O[C@H]2[C@H](OC(=O)c3cc(O)c(O)c(O)c3)[C@@H](OC(=O)c3cc(O)c(O)c(O)c3)[C@H](OC(=O)c3cc(O)c(O)c(O)c3)O[C@@H]2COC(=O)c2cc(O)c(O)c(O)c2)[C@H](OC(=O)c2cc(O)c(O)c(O)c2)[C@@H](OC(=O)c2cc(O)c(O)c(O)c2)[C@@H]1OC(=O)c1cc(O)c(O)c(O)c1)c1cc(O)c(O)c(O)c1", "< 5.00"),
    ("O=C(O[C@@H]1OC[C@@H](OC(=O)c2cc(O)c(O)c(O)c2)[C@@H](OC(=O)c2cc(O)c(O)c(O)c2)[C@H]1OC(=O)c1cc(O)c(O)c(O)c1)c1cc(O)c(O)c(O)c1", "< 5.00"),
]

Next up:
Tell me the measured pIC50 of O=C(OC[C@H]1OC(O)[C@H](OC(=O)c2cc(O)c(O)c(O)c2)[C@@H](OC(=O)c2cc(O)c(O)c(O)c2)[C@H]1OC(=O)c1cc(O)c(O)c(O)c1)c1cc(O)c(O)c(O)c1 (stereo partly drawn) , please.
6.78

Origin of measurements: ChEMBL document CHEMBL4387713
